- Study system: rat CHT1 (high-affinity choline transporter) (Rattus norvegicus)
- Sequence (Q9JMD7 whole entry): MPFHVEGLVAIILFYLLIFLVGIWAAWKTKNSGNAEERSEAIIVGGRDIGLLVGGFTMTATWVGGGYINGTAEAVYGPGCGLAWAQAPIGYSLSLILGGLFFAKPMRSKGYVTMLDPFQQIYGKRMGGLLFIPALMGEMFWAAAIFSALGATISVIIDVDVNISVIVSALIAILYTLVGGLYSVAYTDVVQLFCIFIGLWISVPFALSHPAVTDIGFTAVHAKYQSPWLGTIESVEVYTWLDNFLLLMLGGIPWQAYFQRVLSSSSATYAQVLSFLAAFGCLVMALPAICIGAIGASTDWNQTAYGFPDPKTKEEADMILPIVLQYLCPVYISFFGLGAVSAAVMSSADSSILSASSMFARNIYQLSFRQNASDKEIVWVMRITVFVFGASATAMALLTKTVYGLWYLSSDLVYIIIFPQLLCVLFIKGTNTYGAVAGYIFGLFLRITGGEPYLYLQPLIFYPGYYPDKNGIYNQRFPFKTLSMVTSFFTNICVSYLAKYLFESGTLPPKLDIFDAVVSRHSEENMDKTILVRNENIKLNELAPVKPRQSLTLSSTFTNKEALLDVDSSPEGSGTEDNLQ
- Test name: [3H] choline uptake of Xenopus oocytes injected with CHT1 cRNA
- Experimental: In the presence of cap analog, cRNA was synthesized in vitro with SP6 or T7 RNA polymerase. 20 to 30 ng capped RNA was microinjected into oocytes (stage V to VI) of Xenopus. The uptake was measured in basically same manner as described previously (Nature 360, 467-471, 1992). […] The oocytes completing uptake were solubilized with 10% SDS, and the amount of [^3H] was measured by a liquid scintillation counter.
Quantity measured: Ki

**Query** Quick one: Ki for C[N+]1(C)CCOC(O)(c2ccc(-c3ccc(C4(O)C[N+](C)(C)CCO4)cc3)cc2)C1 (stereo not shown) ?
**Result** 2 to 3 nM

----------
- Study system: nematode high-affinity choline transporter cho-1 (C48D1.3) (Caenorhabditis elegans)
- Construct: injecting each cRNA prepared from candidate full-length cDNAs
- Sequence (O02228 whole entry): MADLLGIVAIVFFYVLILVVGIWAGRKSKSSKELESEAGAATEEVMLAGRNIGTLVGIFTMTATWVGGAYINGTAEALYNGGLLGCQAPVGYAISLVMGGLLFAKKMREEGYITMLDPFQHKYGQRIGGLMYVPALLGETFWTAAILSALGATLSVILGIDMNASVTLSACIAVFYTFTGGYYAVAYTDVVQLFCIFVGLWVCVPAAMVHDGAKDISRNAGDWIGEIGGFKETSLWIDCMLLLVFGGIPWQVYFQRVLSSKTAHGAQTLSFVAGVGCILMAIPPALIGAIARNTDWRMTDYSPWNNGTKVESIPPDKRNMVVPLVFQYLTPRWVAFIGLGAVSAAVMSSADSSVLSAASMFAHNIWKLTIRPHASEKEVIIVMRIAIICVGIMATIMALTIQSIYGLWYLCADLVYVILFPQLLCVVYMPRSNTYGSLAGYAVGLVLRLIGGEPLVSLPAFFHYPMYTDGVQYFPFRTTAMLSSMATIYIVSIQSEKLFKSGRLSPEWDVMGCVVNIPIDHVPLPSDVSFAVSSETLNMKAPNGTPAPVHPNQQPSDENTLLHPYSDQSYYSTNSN
- Test name: [3H] choline uptake of Xenopus oocytes injected with nematode cho-1 (C48D1.3) cRNA
Quantity measured: pKi
// pKi here means minus log10 of the molar concentration (mol/L)

**Query** Quick one: pKi for C[N+]1(C)CCOC(O)(c2ccc(-c3ccc(C4(O)C[N+](C)(C)CCO4)cc3)cc2)C1 (stereo not shown) ?
**Result** 7.30
